- Tested on: Mus musculus
- EXPERIMENT_SUMMARY: Blood level after oral administration in mice (50 mg/kg) was determined by bioassay procedure and represent total activity present in the serum
- Format: ADME, organism-based
- CONDITIONS: in vivo
Exercise: for every item that follows, state its recorded log10(AUC).
Transform log10 | Measure AUC | Unit ng·h/mL

CNC1CN(c2c(F)cc3c(=O)c(C(=O)O)cn(C4CC4)c3c2Cl)C1    3.60
CC1(N)CN(c2c(F)cc3c(=O)c(C(=O)O)cn(C4CC4)c3c2Cl)C1    3.45
NC1CN(c2c(F)cc3c(=O)c(C(=O)O)cn(-c4ccc(F)cc4F)c3c2Cl)C1    4.11
CNC1(C)CN(c2nc3c(cc2F)c(=O)c(C(=O)O)cn3C2CC2)C1    4.36

// each listed compound needs a value for log10(AUC)
1. CC1(N)CN(c2nc3c(cc2F)c(=O)c(C(=O)O)cn3C(C)(C)C)C1
2. CCNCC1CN(c2c(F)cc3c(=O)c(C(=O)O)cn(C4CC4)c3c2F)C1
3. CC1(N)CN(c2cc3c(cc2F)c(=O)c(C(=O)O)cn3C(C)(C)C)C1
4. CC1(N)CN(c2nc3c(cc2F)c(=O)c(C(=O)O)cn3-c2ccc(F)cc2)C1
5. NC1CN(c2c(F)cc3c(=O)c(C(=O)O)cn(C4CC4)c3c2Cl)C1
6. CC1(N)CN(c2nc3c(cc2F)c(=O)c(C(=O)O)cn3-c2ccc(F)cc2F)C1

A)
1: 4.05; 2: 4.15; 3: 3.73; 4: 4.52; 5: 3.93; 6: 4.67

---

I'd be grateful if you could share measured MIC for these entries.
- Tested on: Enterobacter cloacae
- EXPERIMENT_SUMMARY: Minimum inhibitory concentration (MIC)preventing growth of Enterobacter cloacae
- Format: functional
Numbers only, in µg/mL.

Field: example entries. Status: answers known.
CC1(N)CN(c2c(F)cc3c(=O)c(C(=O)O)cn(CCF)c3c2F)C1    1
CN(C)C1CN(c2c(F)cc3c(=O)c(C(=O)O)cn(C4CC4)c3c2F)C1    0.06
CC1(N)CN(c2c(F)cc3c(=O)c(C(=O)O)cn(C4CC4)c3c2F)C1    0.06
CCn1cc(C(=O)O)c(=O)c2cc(F)c(N3CC(C)(N)C3)c(Cl)c21    0.06
CC(=O)CN(C)C1(C)CN(c2cc3c(cc2F)c(=O)c(C(=O)O)cn3C2CC2)C1    0.25

Batch lookup, MIC per entry.
1. CC1(N)CN(c2c(F)cc3c(=O)c(C(=O)O)cn(-c4ccc(F)cc4)c3c2Cl)C1
2. CN(C)C1CN(c2cc3c(cc2F)c(=O)c(C(=O)O)cn3C2CC2)C1
3. CC1(N)CN(c2nc3c(cc2F)c(=O)c(C(=O)O)cn3-c2ccc(F)cc2)C1
4. CC1(N)CN(c2cc3c(cc2F)c(=O)c(C(=O)O)cn3C(C)(C)C)C1
5. O=C(O)c1cn(C2CC2)c2cc(N3CC(O)C3)c(F)cc2c1=O

A)
0.06
0.06
0.06
0.25
0.12

---

Could you please report measured AUC for the items listed next?
- Tested on: Mus musculus
- EXPERIMENT_SUMMARY: Blood level after oral administration in mice (50 mg/kg) was determined by bioassay procedure and represent total activity present in the serum
- Format: ADME, organism-based
- CONDITIONS: in vivo
Answers are plain numbers, in ng·h/mL.

For every item below, please supply its AUC.
1. CNC1CN(c2c(F)cc3c(=O)c(C(=O)O)cn(-c4ccc(F)cc4F)c3c2Cl)C1
2. CC1(N)CN(c2c(F)cc3c(=O)c(C(=O)O)cn(-c4ccc(F)cc4F)c3c2Cl)C1
3. O=C(O)c1cn(C2CC2)c2cc(N3CCNCC3)c(F)cc2c1=O
4. CNC1(C)CN(c2cc3c(cc2F)c(=O)c(C(=O)O)cn3C(C)(C)C)C1
5. CC1(N)CN(c2nc3c(cc2F)c(=O)c(C(=O)O)cn3C2CC2)C1

A)
[15300, 23300, 2300, 4600, 31700]

The values you see were collected from ChEMBL document CHEMBL1126625.
